- Assay Target: ZNF143 (UniProt P52747)
- Sequence (P52747 whole entry, looked up): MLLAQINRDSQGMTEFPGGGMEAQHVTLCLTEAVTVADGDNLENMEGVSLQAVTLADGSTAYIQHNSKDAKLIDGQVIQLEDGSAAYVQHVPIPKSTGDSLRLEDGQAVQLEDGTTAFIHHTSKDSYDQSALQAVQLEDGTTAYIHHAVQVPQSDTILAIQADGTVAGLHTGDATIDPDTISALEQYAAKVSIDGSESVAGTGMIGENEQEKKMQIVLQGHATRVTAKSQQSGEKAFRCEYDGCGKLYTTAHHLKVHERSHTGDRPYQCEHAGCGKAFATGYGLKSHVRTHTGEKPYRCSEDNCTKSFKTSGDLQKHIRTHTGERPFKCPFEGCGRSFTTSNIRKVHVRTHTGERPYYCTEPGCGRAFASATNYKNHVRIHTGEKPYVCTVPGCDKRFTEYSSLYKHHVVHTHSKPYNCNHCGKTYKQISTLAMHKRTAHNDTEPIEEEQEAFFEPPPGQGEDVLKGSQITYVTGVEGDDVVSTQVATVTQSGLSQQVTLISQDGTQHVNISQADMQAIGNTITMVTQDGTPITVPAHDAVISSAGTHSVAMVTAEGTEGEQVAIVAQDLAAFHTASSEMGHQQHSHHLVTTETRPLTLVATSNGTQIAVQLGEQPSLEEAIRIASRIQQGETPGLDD
- Assay Explanation: log2 fold change, soluble protein after heating vs DMSO (PISA); higher = thermal stabilisation; K562 cells, 10 uM, 30 min; active = over 0.2 and 3.5 SD of the protein, either way, in both replicates (recomputed)
About 7,900 targets were measured; listed, in parts, are those with a hit and a random draw of the rest. About 0.6% of all pairs of compound and target were hits.
Property: log2 fold change; scope: individual molecules
// return just the number, without any unit appended

• COc1cc2ncnc(Nc3ccc(F)c(Cl)c3)c2cc1OCCCN1CCOCC1 = -0.098

[ask] Param readout= log2 fold change; system= ZNF143 (UniProt P52747); entry= CN1CCc2c(c3ccccc3n2Cc2ccc(C(=O)NO)cc2)C1 ; returns value.
[reply] -0.031

[ask] Param readout= log2 fold change; system= ZNF143 (UniProt P52747); entry= CNC(=O)c1ccc(Nc2ncc(C(F)(F)F)c(NCc3nccnc3N(C)S(C)(=O)=O)n2)cc1 ; returns value.
[reply] -0.171

[ask] Param readout= log2 fold change; system= ZNF143 (UniProt P52747); entry= COc1cc2nc(-c3cc(F)ccc3O)nc(N[C@@H]3CNC[C@H]3C(C)(C)O)c2cc1OC ; returns value.
[reply] -0.19

[ask] Param readout= log2 fold change; system= ZNF143 (UniProt P52747); entry= Cc1cccc(CC(=O)N2CCc3c2ccc(-c2cn(C)c4ncnc(N)c24)c3F)n1 ; returns value.
[reply] 0.027

[ask] Param readout= log2 fold change; system= ZNF143 (UniProt P52747); entry= Cc1ccc(-n2nc(C(C)(C)C)cc2NC(=O)Nc2ccc(OCCN3CCOCC3)c3ccccc23)cc1 ; returns value.
[reply] 0.01

[ask] Param readout= log2 fold change; system= ZNF143 (UniProt P52747); entry= Nc1ccccc1NC(=O)c1ccc(CNC(=O)OCc2cccnc2)cc1 ; returns value.
[reply] -0.012

[ask] Param readout= log2 fold change; system= ZNF143 (UniProt P52747); entry= Cc1nc(Nc2ncc(C(=O)Nc3c(C)cccc3Cl)s2)cc(N2CCN(CCO)CC2)n1 ; returns value.
[reply] -0.007

[ask] Param readout= log2 fold change; system= ZNF143 (UniProt P52747); entry= Cc1ncc(-c2ccnc(Nc3ccc(S(C)(=O)=O)cc3)n2)n1C(C)C ; returns value.
[reply] 0.074

[ask] Param readout= log2 fold change; system= ZNF143 (UniProt P52747); entry= CN(C)CC(=O)Nc1ccc2[nH]c(=O)c3ccccc3c2c1 ; returns value.
[reply] -0.025

[ask] Param readout= log2 fold change; system= ZNF143 (UniProt P52747); entry= CCN(CCCOc1ccc2c(Nc3cc(CC(=O)Nc4cccc(F)c4)[nH]n3)ncnc2c1)CCOP(=O)(O)O ; returns value.
[reply] 0.01

[ask] Param readout= log2 fold change; system= ZNF143 (UniProt P52747); entry= O=C1c2ccccc2-c2n[nH]c3cccc1c23 ; returns value.
[reply] -0.077
